Values were extracted from patent EP0378755B1.

system: Ornithodorus moubata; assay: Ornithodorus moubata (tick) contact test by dipping; format: in vivo; conditions: 1000 ppm; after 48 h; ca. 25°C
MEASURED_PROPERTY: % Mort. (%)

Example molecules with recorded % Mort.:
{"SMILES_STRING": "COC=C(C(=O)OC)c1ccccc1C=Cc1ccc(Cl)cc1", "TEST_VALUE": 0}
{"SMILES_STRING": "CO/C=C(/C(=O)OC)c1ccccc1/C=C/c1cc(-c2ccccc2)no1", "TEST_VALUE": 60}
{"SMILES_STRING": "CO/C=C(/C(=O)OC)c1ccccc1/C=C/c1cc(-c2ccc(C)cc2)no1", "TEST_VALUE": 60}

A: COC=C(C(=O)OC)c1ccccc1Oc1nc2ccccc2o1
B: CO/C=C(/C(=O)OC)c1ccccc1/C=C/c1cc(C(C)C)no1
When the recorded % Mort. values are compared, which is smaller: that of A or that of B ? Which one? Tell me its label.
A
(A: 0%, B: 80%)
